subjectOfTest: CSF1R (FMS) (Homo sapiens)
Sequence (P07333 20-972): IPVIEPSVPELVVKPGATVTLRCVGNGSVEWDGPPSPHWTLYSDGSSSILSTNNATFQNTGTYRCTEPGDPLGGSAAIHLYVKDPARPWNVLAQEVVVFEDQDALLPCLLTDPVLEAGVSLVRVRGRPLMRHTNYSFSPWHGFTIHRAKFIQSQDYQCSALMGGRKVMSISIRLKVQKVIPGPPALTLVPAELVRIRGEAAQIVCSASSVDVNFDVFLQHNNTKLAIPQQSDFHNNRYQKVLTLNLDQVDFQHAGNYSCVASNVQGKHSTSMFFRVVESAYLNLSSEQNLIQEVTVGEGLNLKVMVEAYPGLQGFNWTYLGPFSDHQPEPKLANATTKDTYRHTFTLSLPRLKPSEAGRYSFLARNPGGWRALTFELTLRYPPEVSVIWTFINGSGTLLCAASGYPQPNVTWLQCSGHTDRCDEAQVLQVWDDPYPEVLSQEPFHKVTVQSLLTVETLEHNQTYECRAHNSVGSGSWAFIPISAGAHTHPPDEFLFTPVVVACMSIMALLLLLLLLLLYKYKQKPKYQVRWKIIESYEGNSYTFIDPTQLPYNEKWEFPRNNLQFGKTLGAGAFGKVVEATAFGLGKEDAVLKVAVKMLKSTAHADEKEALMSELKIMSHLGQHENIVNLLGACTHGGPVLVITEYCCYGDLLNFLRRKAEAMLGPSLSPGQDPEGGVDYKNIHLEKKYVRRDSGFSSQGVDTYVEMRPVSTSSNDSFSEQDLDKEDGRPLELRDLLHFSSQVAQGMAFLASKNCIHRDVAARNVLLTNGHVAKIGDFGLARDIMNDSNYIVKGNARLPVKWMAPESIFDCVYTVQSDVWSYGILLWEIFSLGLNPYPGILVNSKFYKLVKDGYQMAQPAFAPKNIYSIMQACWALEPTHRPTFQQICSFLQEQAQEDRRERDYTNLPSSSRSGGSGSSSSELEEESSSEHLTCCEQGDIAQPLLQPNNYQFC
protocolDetails: Tyrosine kinase inhibition assay
Format: biochemical
conditionDetails: single concentration 1.0 μM, read-out: percent inhibition
Catalogue of inhibition at 1 µM readings, one per entry.
quantityKind: inhibition at 1 µM (%)

INSERT INTO measurements (compound, subjectoftest, observed) VALUES
  ('COc1cc2nccc(Oc3ccc(NC(=O)C4(NC(=O)c5ccc(F)cc5)CC4)cc3F)c2cc1Oc1c(F)cc(N)cc1F', 'CSF1R (FMS) (Homo sapiens)', 93),
  ('COc1cc2nccc(Oc3ccc(NC(=O)C4(C(=O)Nc5ccc(F)cc5)CC4)cc3F)c2cc1Oc1ccc(N)cc1F', 'CSF1R (FMS) (Homo sapiens)', 99),
  ('COc1cc2nccc(Oc3ccc(NC(=O)C4(NC(=O)c5ccc(F)cc5)CC4)cc3F)c2cc1OC', 'CSF1R (FMS) (Homo sapiens)', 83),
  ('COc1cc2nccc(Oc3ccc(NC(=O)C4(C(=O)Nc5ccc(F)cc5)CC4)cc3)c2cc1OC [Cabozantinib, reference compound]', 'CSF1R (FMS) (Homo sapiens)', 88),
  ('COc1cc2nccc(Oc3ccc(NC(=O)C4(NC(=O)c5ccc(F)cc5)CC4)cc3F)c2cc1Oc1ccc(N)cc1F', 'CSF1R (FMS) (Homo sapiens)', 96);
